Organism: Rattus norvegicus
Test: Open TG-GATES - Regimen: Daily Repeat
Type: toxicity, organism-based, Sprague-Dawley
Design: regimen Daily Repeat, gender Male, age 6 weeks
Settings: in vivo, po, 300 mg/kg, […], tissue Blood, route gavage, dose level Middle, time 7 day
MEASUREMENT_TYPE: MCHC (%)
Answers are plain numbers, in %.

smiles_data=CNC(=C[N+](=O)[O-])NCCSCc1ccc(CN(C)C)o1 measurement_type=MCHC endpoint_unit=% readout_value=35.5

// moving on: another record for MCHC
Dear colleague, please send me the reported MCHC for O=C(OC[C@H]1O[C@@H](OC(=O)c2cc(O)c(O)c(OC(=O)c3cc(O)c(O)c(O)c3)c2)[C@H](OC(=O)c2cc(O)c(O)c(OC(=O)c3cc(O)c(O)c(O)c3)c2)[C@@H](OC(=O)c2cc(O)c(O)c(OC(=O)c3cc(O)c(O)c(O)c3)c2)[C@@H]1OC(=O)c1cc(O)c(O)c(OC(=O)c2cc(O)c(O)c(O)c2)c1)c1cc(O)c(O)c(OC(=O)c2cc(O)c(O)c(O)c2)c1 when you can.
33.1

====

Give Ht for every item shown.
Organism: Rattus norvegicus
Assay: Open TG-GATES - Regimen: Single
Type: toxicity, organism-based, Sprague-Dawley
Parameters: regimen Single, gender Male, age 6 weeks
Settings: in vivo, po, 0 mg/kg, 24 h, tissue Blood, route gavage, dose level Control
Answers are plain numbers, in %.

Take each entry in turn and give its Ht.
1. CCCc1cc(=O)[nH]c(=S)[nH]1
2. Brc1ccccc1
3. O=C(OC[C@H]1O[C@@H](OC(=O)c2cc(O)c(O)c(OC(=O)c3cc(O)c(O)c(O)c3)c2)[C@H](OC(=O)c2cc(O)c(O)c(OC(=O)c3cc(O)c(O)c(O)c3)c2)[C@@H](OC(=O)c2cc(O)c(O)c(OC(=O)c3cc(O)c(O)c(O)c3)c2)[C@@H]1OC(=O)c1cc(O)c(O)c(OC(=O)c2cc(O)c(O)c(O)c2)c1)c1cc(O)c(O)c(OC(=O)c2cc(O)c(O)c(O)c2)c1
4. NC1=NC(=O)C(c2ccccc2)O1 (stereo not drawn)
5. CN(C)CCC(c1ccc(Cl)cc1)c1ccccn1 (stereo not drawn)

1: 40; 2: 37.4; 3: 37.6; 4: 37.7; 5: 41.2

====

Provide the recorded KIDNEY_TOTAL for the entries that follow.
Organism: Rattus norvegicus
Assay: Open TG-GATES - Regimen: Daily Repeat
Assay type: toxicity, organism-based, Sprague-Dawley
Design: regimen Daily Repeat, gender Male, age 6 weeks
Conditions: in vivo, po, 1000 mg/kg, […], tissue Kidney, route gavage, dose level High, time 14 day
One number for each entry, in g.

Recorded KIDNEY_TOTAL, per entry:
smiles_data=CN/C(=N/CCSCc1nc[nH]c1C)NC#N readout_value=2.5
smiles_data=O=C(OC[C@H]1O[C@@H](OC(=O)c2cc(O)c(O)c(OC(=O)c3cc(O)c(O)c(O)c3)c2)[C@H](OC(=O)c2cc(O)c(O)c(OC(=O)c3cc(O)c(O)c(O)c3)c2)[C@@H](OC(=O)c2cc(O)c(O)c(OC(=O)c3cc(O)c(O)c(O)c3)c2)[C@@H]1OC(=O)c1cc(O)c(O)c(OC(=O)c2cc(O)c(O)c(O)c2)c1)c1cc(O)c(O)c(OC(=O)c2cc(O)c(O)c(O)c2)c1 readout_value=2.3

API: the following record is the query input.
Provide one value: measured KIDNEY_TOTAL of COC(=O)C1=C(C)NC(C)=C(C(=O)OC)C1c1ccccc1[N+](=O)[O-]
2.4

====

Species on record: Rattus norvegicus
Test: Open TG-GATES - Regimen: Single
Format: toxicity, organism-based, Sprague-Dawley
Design: regimen Single, gender Male, age 6 weeks
Details: in vivo, po, 0 mg/kg, 3 h, tissue Kidney, route gavage, dose level Control
MEASUREMENT_TYPE: KIDNEY_R (g)
Numbers only, in g.

The examples below pair each entry with its known result.
compound="NC1=NC(=O)C(c2ccccc2)O1 (stereo not drawn)" measurement_type=KIDNEY_R readout_value=1
compound=Nc1c2c(nc3ccccc13)CCCC2 measurement_type=KIDNEY_R readout_value=0.9
compound=CNC(=C[N+](=O)[O-])NCCSCc1ccc(CN(C)C)o1 measurement_type=KIDNEY_R readout_value=1
compound=CC(C)NNC(=O)c1ccncc1 measurement_type=KIDNEY_R readout_value=0.9
compound=CCOc1ccc(NC(C)=O)cc1 measurement_type=KIDNEY_R readout_value=0.9

# map each compound to its KIDNEY_R
1. O=C(OC[C@H]1O[C@@H](OC(=O)c2cc(O)c(O)c(OC(=O)c3cc(O)c(O)c(O)c3)c2)[C@H](OC(=O)c2cc(O)c(O)c(OC(=O)c3cc(O)c(O)c(O)c3)c2)[C@@H](OC(=O)c2cc(O)c(O)c(OC(=O)c3cc(O)c(O)c(O)c3)c2)[C@@H]1OC(=O)c1cc(O)c(O)c(OC(=O)c2cc(O)c(O)c(O)c2)c1)c1cc(O)c(O)c(OC(=O)c2cc(O)c(O)c(O)c2)c1
2. CN1C(=O)CCS(=O)(=O)C1c1ccc(Cl)cc1 (stereo not drawn)
3. Cc1nnc2n1-c1ccc(Cl)cc1C(c1ccccc1Cl)=NC2

1: 0.9; 2: 1; 3: 0.8

====

Species on record: Rattus norvegicus
Assay: Open TG-GATES - Regimen: Daily Repeat
Assay type: toxicity, organism-based, Sprague-Dawley
Set-up: regimen Daily Repeat, gender Male, age 6 weeks
Details: in vivo, po, 0 mg/kg, 72 h, tissue Blood, route gavage, dose level Control, time 3 day
MEASUREMENT_TYPE: MCH (pg)
One number for each entry, in pg.

Previously resolved entries follow.
compound="O=C(OC[C@H]1O[C@@H](OC(=O)c2cc(O)c(O)c(OC(=O)c3cc(O)c(O)c(O)c3)c2)[C@H](OC(=O)c2cc(O)c(O)c(OC(=O)c3cc(O)c(O)c(O)c3)c2)[C@@H](OC(=O)c2cc(O)c(O)c(OC(=O)c3cc(O)c(O)c(O)c3)c2)[C@@H]1OC(=O)c1cc(O)c(O)c(OC(=O)c2cc(O)c(O)c(O)c2)c1)c1cc(O)c(O)c(OC(=O)c2cc(O)c(O)c(O)c2)c1 [TANNIC ACID]" measurement_type=MCH readout_value=21.8
compound="CNC(=C[N+](=O)[O-])NCCSCc1ccc(CN(C)C)o1 [RANITIDINE]" measurement_type=MCH readout_value=22.1
compound="Brc1ccccc1 [BROMOBENZENE]" measurement_type=MCH readout_value=21.4
compound="NC1=NC(=O)C(c2ccccc2)O1 (stereo not drawn) [PEMOLINE]" measurement_type=MCH readout_value=21.7
compound="CN(C)CCC(c1ccc(Cl)cc1)c1ccccn1 (stereo not drawn) [CHLORPHENIRAMINE]" measurement_type=MCH readout_value=20.6

Would you mind listing MCH for each of the following compounds?
1. COC(=O)C1=C(C)NC(C)=C(C(=O)OC)C1c1ccccc1[N+](=O)[O-] [NIFEDIPINE]
2. Cc1nnc2n1-c1ccc(Cl)cc1C(c1ccccc1Cl)=NC2 [TRIAZOLAM]

20.8
21

Batch request: MCH per item, same order as input.
1. Nc1c2c(nc3ccccc13)CCCC2 [TACRINE]
2. CN/C(=N/CCSCc1nc[nH]c1C)NC#N [CIMETIDINE]

21.1
21

Give me MCH for each of these compounds, listed below.
1. CCOc1ccc(NC(C)=O)cc1 [PHENACETIN]
2. CCCc1cc(=O)[nH]c(=S)[nH]1 [PROPYLTHIOURACIL]
3. CC(C)NNC(=O)c1ccncc1 [IPRONIAZID]
4. CN1C(=O)CCS(=O)(=O)C1c1ccc(Cl)cc1 (stereo not drawn) [CHLORMEZANONE]

1. 21.1
2. 21.7
3. 21.2
4. 22.1

====

Species: Rattus norvegicus
Experiment: Open TG-GATES - Regimen: Single
Format: toxicity, organism-based, Sprague-Dawley
Parameters: regimen Single, gender Male, age 6 weeks
Conditions: in vivo, po, 1000 mg/kg, 6 h, tissue Plasma, route gavage, dose level High
MEASUREMENT_TYPE: DBIL (mg/dL)
Answers are plain numbers, in mg/dL.

Solved cases below.
smiles_data=COC(=O)C1=C(C)NC(C)=C(C(=O)OC)C1c1ccccc1[N+](=O)[O-] measurement_type=DBIL endpoint_unit=mg/dL readout_value=0.008
smiles_data=CN/C(=N/CCSCc1nc[nH]c1C)NC#N measurement_type=DBIL endpoint_unit=mg/dL readout_value=0.078
smiles_data=Cc1nnc2n1-c1ccc(Cl)cc1C(c1ccccc1Cl)=NC2 measurement_type=DBIL endpoint_unit=mg/dL readout_value=0.012

List DBIL for every entry below, keeping the order given.
1. O=C(OC[C@H]1O[C@@H](OC(=O)c2cc(O)c(O)c(OC(=O)c3cc(O)c(O)c(O)c3)c2)[C@H](OC(=O)c2cc(O)c(O)c(OC(=O)c3cc(O)c(O)c(O)c3)c2)[C@@H](OC(=O)c2cc(O)c(O)c(OC(=O)c3cc(O)c(O)c(O)c3)c2)[C@@H]1OC(=O)c1cc(O)c(O)c(OC(=O)c2cc(O)c(O)c(O)c2)c1)c1cc(O)c(O)c(OC(=O)c2cc(O)c(O)c(O)c2)c1
2. CNC(=C[N+](=O)[O-])NCCSCc1ccc(CN(C)C)o1

1. 0.008
2. 0.066
